meta.source: ChEMBL document CHEMBL4513216

Test: Toxicity liver stage against HepG2, at 10uM
Format: cell-based
Parameters: test concentration 10 uM, cell line HepG2-A16-CD81EGFP
Details: human, HepG2-A16-CD81EGFP cells; read-out: INHIBITION
MEASURED_QUANTITY: cytotoxicity at 10 µM (%)
Your answer is read as %, so omit the unit and give the number.

Some solved entries appear below for comparison.
CC(=O)N1CCN(C(=O)c2ccc(-c3cccc(C)c3)[nH]c2=O)CC1; 3.64
Cc1nc(-c2nnc[nH]2)sc1C(=O)N1CCCC1Cn1cccn1 (stereo unspecified); 11.8
CSc1ccc(C2CC(=O)Nc3c2c(=O)[nH]c2ncnn32)cc1 (stereo unspecified); -8.22

Ask: Query: cytotoxicity at 10 µM; subject: O=C(Cn1cc(C(=O)O)cn1)Nc1c(Cl)cccc1Cl
Reply: 1.57

Ask: Proceed to Cc1ccc(C(=O)NC2CCCN(CC(N)=O)C2)c(=O)[nH]1 (stereo unspecified)
Reply: 0.601

Ask: Proceed to Cc1ccc(N2CCC(NC(C)c3ccc(C)o3)CC2)nc1 (stereo unspecified)
Reply: -6.59
